Hi there, I'd appreciate the recorded Remaining (T = NCF60 min) for every entry that follows.
assay: In vitro microsomal metabolic stability, CD-1 mouse liver microsomes; assay type: in vitro ADME; conditions: Mouse liver microsomes, without NADPH regenerating system, 60 min
Kindly answer with a numeric value in %, unit omitted.

Recorded Remaining (T = NCF60 min) for CO[C@H]1C[C@@H]2CC[C@@H](C)[C@@](O)(O2)C(=O)C(=O)N2CCCC[C@H]2C(=O)O[C@H]([C@H](C)C[C@@H]2CC[C@@H](OCCO)[C@H](OC)C2)CC(=O)[C@H](C)/C=C(\C)[C@@H](O)[C@@H](OC)C(=O)[C@H](C)C[C@H](C)/C=C/C=C/C=C/1C [RAD001, everolimus, reference compound] , please?
126

Quick one: CO[C@@H]1C[C@H](C[C@@H](C)[C@@H]2CC[C@H](C)/C=C(\C)[C@@H](O)[C@@H](OC)C(=O)[C@H](C)C[C@H](C)/C=C/C=C/C=C(\C)C(Nc3cccc(OC(F)(F)F)c3)C[C@@H]3CC[C@@H](C)[C@@](O)(O3)C(=O)C(=O)N3CCCCC3C(=O)O2)CC[C@H]1O (stereo partly drawn)
96

Quick one: CO[C@@H]1C[C@H](C[C@@H](C)[C@@H]2CC[C@H](C)/C=C(\C)[C@@H](O)[C@@H](OC)C(=O)[C@H](C)C[C@H](C)/C=C/C=C/C=C(\C)C(Nc3cnon3)C[C@@H]3CC[C@@H](C)[C@@](O)(O3)C(=O)C(=O)N3CCCCC3C(=O)O2)CC[C@H]1O (stereo partly drawn)
81.40

This collection of values is drawn from patent US20240360153A1.
